Test System: Jak2 (UniProt O60674)
Sequence (O60674 whole entry, looked up): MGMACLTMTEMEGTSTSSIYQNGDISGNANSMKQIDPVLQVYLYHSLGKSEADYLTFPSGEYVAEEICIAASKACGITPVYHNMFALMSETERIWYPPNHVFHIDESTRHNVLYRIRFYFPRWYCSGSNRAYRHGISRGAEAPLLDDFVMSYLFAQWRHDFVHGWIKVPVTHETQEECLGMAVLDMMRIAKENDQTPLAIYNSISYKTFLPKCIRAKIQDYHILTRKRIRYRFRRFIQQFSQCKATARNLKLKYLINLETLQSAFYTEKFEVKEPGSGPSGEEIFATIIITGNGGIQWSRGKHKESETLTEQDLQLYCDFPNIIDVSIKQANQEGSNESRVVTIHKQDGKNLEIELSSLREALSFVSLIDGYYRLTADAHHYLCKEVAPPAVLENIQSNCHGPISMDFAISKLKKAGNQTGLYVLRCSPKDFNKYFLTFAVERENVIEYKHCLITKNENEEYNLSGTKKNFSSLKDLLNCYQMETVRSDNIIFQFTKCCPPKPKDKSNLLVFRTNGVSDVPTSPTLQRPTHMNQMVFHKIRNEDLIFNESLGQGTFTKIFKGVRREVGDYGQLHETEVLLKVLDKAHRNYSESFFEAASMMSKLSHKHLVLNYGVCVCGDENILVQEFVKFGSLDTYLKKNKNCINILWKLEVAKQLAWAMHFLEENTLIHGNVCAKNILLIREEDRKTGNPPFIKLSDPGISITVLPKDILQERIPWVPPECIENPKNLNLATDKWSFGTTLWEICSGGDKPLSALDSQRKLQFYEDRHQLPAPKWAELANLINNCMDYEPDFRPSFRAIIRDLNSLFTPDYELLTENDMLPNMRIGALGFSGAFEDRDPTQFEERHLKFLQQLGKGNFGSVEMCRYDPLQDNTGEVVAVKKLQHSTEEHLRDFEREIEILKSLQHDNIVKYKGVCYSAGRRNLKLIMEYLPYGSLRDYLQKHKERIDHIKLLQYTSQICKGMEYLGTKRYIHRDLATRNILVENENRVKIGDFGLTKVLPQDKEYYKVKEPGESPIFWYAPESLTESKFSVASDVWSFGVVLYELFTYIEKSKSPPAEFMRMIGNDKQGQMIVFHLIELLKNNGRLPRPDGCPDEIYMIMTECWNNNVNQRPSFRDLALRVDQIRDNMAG
Test Method Notes: phosphorylation enrichment, bacterial display (enrichment ratio); higher = better substrate or ligand; peptides without Tyr show the background
Each record here notes measured phosphorylation enrichment.
Returns: the value as a bare number; no unit string appended.

These solved cases illustrate the format of a correct answer.
Sequence Entry: EVKEAYMGNVL [ACAT1_Y90]
Test System: Jak2 (UniProt O60674)
phosphorylation enrichment: 0.626

Sequence Entry: GHNDVYISKHV [GRIN2A_Y1423_E1426K]
Test System: Jak2 (UniProt O60674)
phosphorylation enrichment: 0.391

Sequence Entry: KEAQVYQAFRL [SUCLG2_Y343_K347R]
Test System: Jak2 (UniProt O60674)
phosphorylation enrichment: 0.661

Sequence Entry: LLREWYVQDPY [SIX3_Y225_L226V]
Test System: Jak2 (UniProt O60674)
phosphorylation enrichment: 0.798

Sequence Entry: RENGPYFASFP [GDAP2_Y487_T489A_YF]
Test System: Jak2 (UniProt O60674)
phosphorylation enrichment: 1.27

Sequence Entry: ADGLEYSRTGL [MMUT_Y287]
Test System: Jak2 (UniProt O60674)
phosphorylation enrichment: 0.855

What measured phosphorylation enrichment goes with IDFARYWHGND [MMP11_Y162_D166N] ? 0.564

Field request: phosphorylation enrichment | item: LGPSDYFGEIA [PRKAR1A_Y323] 1.08

Give the measured phosphorylation enrichment of MSRDVYSTDFF [NTRK2_Y702_YF] . 0.728

# phosphorylation enrichment lookup, item LLKAGYHGVLR [TTPA_Y100] 0.903

So what's the measured phosphorylation enrichment for this one? IITDFYVDMKF [MPP4_Y567_V562I_YF] 1.75

Form field: reported phosphorylation enrichment of SLFQFYFQQKG [CHKB_Y381_R377L] 1.43

For the sequence shown here, GLTSTYVGIRK [ROBO1_Y932_A933V] , give the reported phosphorylation enrichment. 0.598

###

Below, each entry is listed with its recorded phosphorylation enrichment.
Test System: EPHB2 (UniProt P29323)
Sequence (P29323 whole entry, looked up): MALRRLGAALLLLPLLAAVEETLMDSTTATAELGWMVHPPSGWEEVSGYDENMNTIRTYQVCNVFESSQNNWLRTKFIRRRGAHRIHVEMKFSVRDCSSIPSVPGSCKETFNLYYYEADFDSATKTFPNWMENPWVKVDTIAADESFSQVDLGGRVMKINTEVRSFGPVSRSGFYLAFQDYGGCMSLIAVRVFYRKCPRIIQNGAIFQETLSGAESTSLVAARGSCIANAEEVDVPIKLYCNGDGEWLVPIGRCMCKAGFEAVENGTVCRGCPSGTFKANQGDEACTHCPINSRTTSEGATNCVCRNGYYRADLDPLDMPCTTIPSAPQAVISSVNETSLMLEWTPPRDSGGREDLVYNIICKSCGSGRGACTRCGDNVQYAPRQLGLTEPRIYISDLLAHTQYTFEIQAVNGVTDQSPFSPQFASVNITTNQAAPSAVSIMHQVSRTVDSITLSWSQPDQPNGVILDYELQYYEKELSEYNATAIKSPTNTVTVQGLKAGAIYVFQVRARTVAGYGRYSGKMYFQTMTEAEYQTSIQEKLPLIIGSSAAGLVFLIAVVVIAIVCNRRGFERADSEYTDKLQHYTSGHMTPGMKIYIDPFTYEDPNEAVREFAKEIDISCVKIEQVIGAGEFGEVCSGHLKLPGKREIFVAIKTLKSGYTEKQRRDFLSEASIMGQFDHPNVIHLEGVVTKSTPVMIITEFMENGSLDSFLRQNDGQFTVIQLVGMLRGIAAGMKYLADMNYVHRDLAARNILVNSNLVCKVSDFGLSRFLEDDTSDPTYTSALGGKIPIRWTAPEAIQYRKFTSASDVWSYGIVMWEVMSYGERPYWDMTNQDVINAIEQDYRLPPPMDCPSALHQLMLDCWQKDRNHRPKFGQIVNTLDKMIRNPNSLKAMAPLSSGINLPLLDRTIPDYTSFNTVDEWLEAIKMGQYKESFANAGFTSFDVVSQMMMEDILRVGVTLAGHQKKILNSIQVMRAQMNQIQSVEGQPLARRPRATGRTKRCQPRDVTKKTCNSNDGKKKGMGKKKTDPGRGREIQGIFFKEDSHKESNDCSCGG
Test Method Notes: phosphorylation enrichment, bacterial display (enrichment ratio); higher = better substrate or ligand; peptides without Tyr show the background

Before answering, review these 8 worked examples.
Sequence Entry: YIRKDYEACKA [BBS4_Y48]
Test System: EPHB2 (UniProt P29323)
Reading: 0.398
//
Sequence Entry: PSPMPYAFCQM [FOXL2_Y215_S217F]
Test System: EPHB2 (UniProt P29323)
Reading: 1.28
//
Sequence Entry: DAGTDYVGISR [FREM2_Y2061]
Test System: EPHB2 (UniProt P29323)
Reading: 0.492
//
Sequence Entry: TQNAVYSAANY [DDX5_Y535_G533A]
Test System: EPHB2 (UniProt P29323)
Reading: 3.99
//
Sequence Entry: DQIDTYELSGG [DNM1_Y354]
Test System: EPHB2 (UniProt P29323)
Reading: 0.735
//
Sequence Entry: SLFQFYFQQKG [CHKB_Y381_R377L]
Test System: EPHB2 (UniProt P29323)
Reading: 0.568
//
Sequence Entry: VASSLYDIFAR [GLB1_Y294_L297F]
Test System: EPHB2 (UniProt P29323)
Reading: 1.81
//
Sequence Entry: ELAKYYKLHHI [AK7_Y391_N389K]
Test System: EPHB2 (UniProt P29323)
Reading: 0.562

May I ask what phosphorylation enrichment has been recorded for RPYSPYIIRGM [LRP5_Y1531_R1529S] ? 0.575

Give the measured phosphorylation enrichment of FADIAYNFRHA [PAH_Y166_G171A_YF] . 0.342

Sample VISNAYVDLAP [HSD17B4_Y602] — what was its phosphorylation enrichment? 0.557

Bench note: what phosphorylation enrichment did YALAEYTEVKT [ALDH1A3_Y497] show? 0.719

I have this sequence here, FVPSFYHAFSG [ACTN4_Y265_S262P_YF] , and I need its recorded phosphorylation enrichment. 0.756

Which measured phosphorylation enrichment value corresponds to KDQPDYKFQPR [SOX9_Y172_H169Q_YF] ? 0.402

###

Test System: c-Src SH2
Test Method Notes: SH2 binding enrichment of the phosphorylated peptide, bacterial display (enrichment ratio); higher = better substrate or ligand; peptides without Tyr show the background
Property: SH2 binding enrichment
# output: bare number, no unit

Sequence Entry: LFMGDYVDRGY [PPP2CA_Y86]
SH2 binding enrichment: 0.711

Sequence Entry: RTMPDYTSFNT [EPHB2_Y912_I909M]
SH2 binding enrichment: 0.521

Sequence Entry: LRYEVYGGENE [STOX1_Y610]
SH2 binding enrichment: 1.64

Fill in the blank: the reported SH2 binding enrichment of WQQQSYLDYGI [CTNNB1_Y30_S33Y] is ____. 0.511

Fill blank: measured SH2 binding enrichment of the sequence HRDSSYFWEIE [RAF1_Y340_Q335H_YF] is ____. 0.802

# query: SH2 binding enrichment of entry RMDGTYACSFT [FLNB_Y704_YF] 0.557

Name the recorded SH2 binding enrichment for LTFDEYRNNSQ [ANXA3_Y216_I219N] . 0.417

For GVRLFYRVRES [RB1_Y454_M457R_YF] , what is its reported SH2 binding enrichment? 0.476

# input sequence: ELAKYYKLHHI [AK7_Y391_N389K] ; wanted: its SH2 binding enrichment 0.748

What does the record list as SH2 binding enrichment for FADIAYNYRDG [PAH_Y166_H170D] ? 0.639

Need SH2 binding enrichment, item CEQELYSQLVY [WAS_Y102_W97C] 0.518

###

Entries and their SH2 binding enrichment values follow.
Test System: SHP2-C SH2
Test Method Notes: SH2 binding enrichment of the phosphorylated peptide, bacterial display (enrichment ratio); higher = better substrate or ligand; peptides without Tyr show the background

The cases that follow already have their SH2 binding enrichment on record.
Sequence Entry: GVRLFYRVRES [RB1_Y454_M457R_YF]
SH2 binding enrichment: 0.578
//
Sequence Entry: DRPSEYAARQL [ANXA13_Y90]
SH2 binding enrichment: 0.699
//
Sequence Entry: IIRQLYLKWHP [SACS_Y4333_R4331Q]
SH2 binding enrichment: 1.59

I am curious: what SH2 binding enrichment value has been reported for TAIFIYIRPKA [OR10C1_Y258_L255I] ? 0.796

Entry RHPLDYLRQYP [NARS2_Y138_E137D] has what SH2 binding enrichment? 1.71

Which SH2 binding enrichment is listed for MRNDLYQTPLH [NFKB1_Y582] ? 0.55

Need SH2 binding enrichment, item TQNAVYSAANY [DDX5_Y535_G533A] 0.956

###

Test System: c-Src SH2
Test Method Notes: SH2 binding enrichment of the phosphorylated peptide, bacterial display (enrichment ratio); higher = better substrate or ligand; peptides without Tyr show the background
Short version: SH2 binding enrichment at least 0.8 is T, less is F.

For orientation, consider the following solved cases.
Sequence Entry: AKLVQYFMEHH [PTPN11_Y80_E76K_YF]
Label Class: T
//
Sequence Entry: LLVVLNKFRCF [PSEN1_Y154_Y154N_YF]
Label Class: T
//
Sequence Entry: PSGPAYRGAVP [ASAH1_Y43_T42A]
Label Class: F
//
Sequence Entry: VGGRIYIDDAL [PKLR_Y218_G222A]
Label Class: F
//
Sequence Entry: VPFARYLAMNK [HARS1_Y138]
Label Class: F

Determine whether measured SH2 binding enrichment meets or exceeds 0.8 for SELVRYDARVH [MET_Y971] F

Please tell me: is the sequence GLSDPYVKIHL [SYT2_Y309] at or over 0.8 in terms of SH2 binding enrichment? T

###

Test System: EPHB2 (UniProt P29323)
Test Method Notes: phosphorylation enrichment, bacterial display (enrichment ratio); higher = better substrate or ligand; peptides without Tyr show the background
Property: phosphorylation enrichment
// return a plain number; no unit text

So what does the record say about phosphorylation enrichment for VASIFYTLVIP [OR8K3_Y277] ? 0.769

What value of measured phosphorylation enrichment is listed for FLTQHYDAEPQ [ANG_Y38_K41E] ? 0.554

Which phosphorylation enrichment is reported for this sequence? ETKKQYDSFTF [TMED3_Y85_YF] 0.397

# input sequence: MENFIYESMRY [CYP19A1_Y361] ; wanted: its phosphorylation enrichment 3.32

I'd like to know its phosphorylation enrichment. The sequence in question is PEFMVYKPQME [CCRL2_Y170_V168M] 0.624

Name the reported phosphorylation enrichment value associated with the sequence EVASVYESFQP [MAVS_Y92_Q93E_YF] 1.01

If you can, please state the reported phosphorylation enrichment value of HPAGNYSLSSV [ARFGAP3_Y473_Q468H] . 0.58

Request the reported phosphorylation enrichment associated with FVKEPYIQSRF [HIPK4_Y175_YF] 0.452

Look up phosphorylation enrichment: SYPHEYGSQEG [RBM10_Y48_R46H] 0.44

GET /values?readout=phosphorylation enrichment&item= PSRKDYETYQS [CTNND2_Y1154_P1159S] 1.03

GET /values?readout=phosphorylation enrichment&item= LWKWRYEELKE [CCDC102B_Y299_K298R] 1.09

phosphorylation enrichment for HHIDYYKETTN [FGFR1_Y654_K656E] ? 0.814

What measured phosphorylation enrichment goes with YSTDYYRVGGH [NTRK2_Y707] ? 3.5

Field request: phosphorylation enrichment | item: EHIEFYELDKK [PMM2_Y145_R141H] 0.492

Reference source for all entries: the supplement of paper PMC10065799
